Tested on: Ba/F3 KIT mutant cells
assay_overview: Ba/F3 mutant KIT Cell Proliferation Assays (resazurin)
Type: cell-based
conditions_used: Mus musculus, BaF3; Ba/F3 KIT exon11del-V654A mutant cell proliferation; read-out: exon11del-V654A IC50
result_type: IC50

COCCOc1cc(OC)c2c(Nc3ccc(NC(=O)CC(=O)NC4CCC4)cc3)ncnc2c1; 0.01 to 0.1 µM
COCCOc1cc(F)c2c(Nc3ccc(NC(=O)NC4CCC(F)(F)CC4)cc3)ncnc2c1; 0.1 to 1 µM
COCCOc1ccc2c(Nc3ccc(NC(=O)CC(=O)NCC(C)(C)C)cn3)ccnc2c1; > 1 µM
COCCOc1cc(F)c2c(Nc3ccc(NC(=O)NCCC(C)(C)C#N)cc3F)ncnc2c1; 0.1 to 1 µM
COCCOc1cc(OC)c2c(Nc3ccc(NC(=O)CC(=O)NC(C)(C)C)cc3)ncnc2c1; 0.1 to 1 µM
COCCOc1cc(F)c2c(Nc3ccc(NC(=O)CC(=O)NCC4(C)CCC4)cc3)ncnc2c1; ≤ 0.01 µM

[in] For the compound "COCCOc1cc(F)c2c(Nc3ccc(NC(=O)CC(=O)NCC(C)(C)F)cc3)ncnc2c1" , what IC50 is on record?
[out] 0.01 to 0.1 µM

[in] For the compound "COC(C)(C)CCNC(=O)Nc1ccc(Nc2ncnc3cc(OCCN4CCOCC4)cc(F)c23)cc1" , what IC50 is on record?
[out] 0.01 to 0.1 µM

[in] For the compound "COCCOc1cc(F)c2c(Nc3ccc(NC(=O)CC(=O)N4CCC[C@H]4C)cc3)ncnc2c1" , what IC50 is on record?
[out] 0.1 to 1 µM

[in] For the compound "COCCOc1cc(F)c2c(Nc3ccc(NC(=O)C4(C(=O)N(C)CC(C)(C)C)CC4)cc3)ncnc2c1" , what IC50 is on record?
[out] > 1 µM

[in] For the compound "COCCOc1cc(F)c2c(Nc3ccc(NC(=O)CC(=O)N4CCC(C)(C)CC4)cc3)ncnc2c1" , what IC50 is on record?
[out] 0.01 to 0.1 µM

[in] For the compound "COCCOc1cc(F)c2c(Nc3ccc(NC(=O)CC(=O)NC4CCC4)cc3)ncnc2c1" , what IC50 is on record?
[out] ≤ 0.01 µM

Hello, the source for this data is patent US20240116877A1, in case you need it.
